The entries below are paired with their reported GLP1 secretion stimulation.
# EXPERIMENT NOTES: glucagon-like peptide 1 release enhancers, primary assay, NCI-H716 cell line, NPC library (AID 1117341); also: reference of the scale not given here
# RUN PARAMETERS: NCI-H716 cells, at 10 µM, active compounds read high
Calls of active or inactive are those of the source.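 The calls were made as follows: active = compound raises GLP1 secretion from the human gut endocrine cells, with no numeric limit stated; inactive = the rest.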
MEASURE NAME: GLP1 secretion stimulation

compound="CCC(C(=O)OCCN1CCOC(c2ccccc2)C1C)c1ccccc1 (stereo unspecified)" endpoint_result="5.9% (inactive)"
compound=C[C@H](CCC(=O)O)[C@H]1CC[C@H]2[C@@H]3C(=O)C[C@@H]4CC(=O)CC[C@]4(C)[C@H]3CC(=O)[C@]12C endpoint_result="0.2% (inactive)"
compound=CC(C)[C@H]1CC[C@H](C)C[C@H]1O endpoint_result="7.7% (inactive)"
compound=CCc1cc(C(N)=S)ccn1 endpoint_result="-4% (inactive)"
compound=COC(=O)c1ccc(O)cc1 endpoint_result="0.6% (inactive)"
compound=Nc1ncn([C@@H]2O[C@H](CO)[C@@H](O)[C@H]2O)c(=O)n1 endpoint_result="-0.3% (inactive)"

Hey, just so you know, these numbers are from PubChem BioAssay.
